assay_details: Liver microsome metabolism stability test, rat
Type: in vitro ADME
settings: rat liver microsomes 0.5 mg/mL, 1 μM compound, 37° C.; read-out: in vitro T1/2

| structure_string | half-life at 1 μM |
| --- | --- |
| CC(C)c1ccccc1-c1ccc(N2CC[C@H](Sc3ccc(Cl)cn3)C2)c(CO)c1 | 12.4 min |

* * *

assay_details: Liver microsome metabolism stability test, human
Type: in vitro ADME
settings: human liver microsomes 0.5 mg/mL, 1 μM compound, 37° C.; read-out: in vitro T1/2

| structure_string | unit_abbrev | half-life at 1 μM |
| --- | --- | --- |
| CC(C)c1ccccc1-c1ccc(N2CC[C@H](Sc3ccc(Cl)cn3)C2)c(CO)c1 | min | 10.3 |
